- assay-overview: label from the status in PepcDB records

| chain-sequence | protein production |
| --- | --- |
| METMFDTLLQLPLFQGLCHEDFTSILDKVKLHFIKHKAGETIIKSGNPCTQLCFLLKGEISIVTNAKENIYTVIEQIEAPYLIEPQSLFGMNTNYASSYVAHTEVHTVCISKAFVLSDLFRYDIFRLNYMNIVSNRAQNLYSRLWDEPTLDLKSKIIRFFLSHCEKPQGEKTFKVKMDDLARCLDDTRLNISKTLNELQDNGLIELHRKEILIPDAQKLL | not failed |
| MSNVLIINAMKEFAHSKGALNLTLTNVAADFLRESGHQVKITTVDQGYDIESEIENYLWADTIIYQMPAWWMGEPWILKKYIDEVFTDGHGRLYQSDGRTRSDATKGYGSGGLIQGKTYMLSVTWNAPREAFTDPEQFFHGVGVDGVYLPFHKANQFLGMKPLPTFMCNDVIKQPDIEGDIARYRQHLAENVNS | not failed |
